Hi, quick share: literature pIC50 data for human PDE10A2 (Homo sapiens (Human), UniProt Q9Y233), several sources combined.
Give bare numbers, as −log10 of the molar value.

Check out these entries, answers already filled in.
• Cc1ccc(O)cc1-c1nnc2c(C)nc3ccc(C4CC4)nc3n12 = 8.00
• COc1ccc(Cn2nc(C#Cc3nc4cc(Cl)ccn4n3)nc2N2CCCC2)cc1 = 6.32
• Cc1cscc1-c1c[nH]c(CCc2nc3cccc(C)n3n2)n1 = 7.35
• CC(C)(O)CNC(=O)c1ncccc1NC(=O)c1nc(C(C)(C)C)ncc1Nc1cncnc1 = 8.96
• Cc1cc(C)n2cc(CCc3nc(-c4cccs4)cn3C)nc2n1 = 7.35

Here are 3 compounds. What values of pIC50 were reported for them?
1. COc1ccc2ccc(/C=C/c3nc4c(C)ncc(C)n4n3)nc2c1
2. COc1ccc2nc(CCc3nc4nc(C)cc(C)n4n3)ccc2c1
3. CCOC(C(=O)c1ccc(-c2cc(OC)c(Cl)c(OC)c2)o1)c1ccc(-c2nnc(C)s2)cc1 (racemic)

Result:
1. 7.89
2. 6.77
3. 9.21
